Measured values drawn from ChEMBL document CHEMBL3046492 for this set.

Tested on: Culex pipiens pallens
measurement notes: Insecticidal activity against fourth-instar larval stage of Culex pipiens pallens (mosquito) assessed as mortality at 0.25 mg/kg at 25 +/-1 degC after 2 days
Type: functional
test conditions: 48 h
Listed below: mortality at 0.25 mg/kg values for each entry.

compound: CC(Oc1cccc([N+](=O)[O-])c1)C(=O)OCn1c(-c2ccc(Cl)cc2)c(C#N)c(Br)c1C(F)(F)F (stereo unspecified)
tested on: Culex pipiens pallens
mortality at 0.25 mg/kg [%]: 100

compound: CCOCn1c(-c2ccc(Cl)cc2)c(C#N)c(Br)c1C(F)(F)F [CHLORFENAPYR]
tested on: Culex pipiens pallens
mortality at 0.25 mg/kg [%]: 100

compound: CC(Oc1cccc(Cl)c1)C(=O)OCn1c(-c2ccc(Cl)cc2)c(C#N)c(Br)c1C(F)(F)F (stereo unspecified)
tested on: Culex pipiens pallens
mortality at 0.25 mg/kg [%]: 100

compound: Cc1ccc(C(=O)OCn2c(-c3ccc(Cl)cc3)c(C#N)c(Br)c2C(F)(F)F)cc1
tested on: Culex pipiens pallens
mortality at 0.25 mg/kg [%]: 100

compound: Cc1cccc(OC(C)C(=O)OCn2c(-c3ccc(Cl)cc3)c(C#N)c(Br)c2C(F)(F)F)c1 (stereo unspecified)
tested on: Culex pipiens pallens
mortality at 0.25 mg/kg [%]: 100

compound: N#Cc1c(Br)c(C(F)(F)F)n(COC(=O)c2cccc([N+](=O)[O-])c2)c1-c1ccc(Cl)cc1
tested on: Culex pipiens pallens
mortality at 0.25 mg/kg [%]: 40

* * *

Listed below: mortality at 0.25 mg/kg values for each entry.
Test system: Culex pipiens pallens
measurement notes: Insecticidal activity against fourth-instar larval stage of Culex pipiens pallens (mosquito) assessed as mortality at 0.25 mg/kg at 25 +/-1 degC after 2 days
Assay type: functional
test conditions: 48 h

molecule: N#Cc1c(Br)c(C(F)(F)F)n(COC(=O)c2ccccc2[N+](=O)[O-])c1-c1ccc(Cl)cc1
value units: %
mortality at 0.25 mg/kg: 20
--
molecule: N#Cc1c(Br)c(C(F)(F)F)n(COC(=O)c2cc([N+](=O)[O-])cc([N+](=O)[O-])c2)c1-c1ccc(Cl)cc1
value units: %
mortality at 0.25 mg/kg: 100
--
molecule: CCOC(=O)OCn1c(-c2ccc(Cl)cc2)c(C#N)c(Br)c1C(F)(F)F
value units: %
mortality at 0.25 mg/kg: 100
--
molecule: N#Cc1c(Br)c(C(F)(F)F)n(COC(=O)c2ccccc2Cl)c1-c1ccc(Cl)cc1
value units: %
mortality at 0.25 mg/kg: 100
--
molecule: N#Cc1c(Br)c(C(F)(F)F)n(COC(=O)c2ccc([N+](=O)[O-])cc2)c1-c1ccc(Cl)cc1
value units: %
mortality at 0.25 mg/kg: 60
--
molecule: CCCCC(=O)OCn1c(-c2ccc(Cl)cc2)c(C#N)c(Br)c1C(F)(F)F
value units: %
mortality at 0.25 mg/kg: 100
--
molecule: CCC(=O)OCn1c(-c2ccc(Cl)cc2)c(C#N)c(Br)c1C(F)(F)F
value units: %
mortality at 0.25 mg/kg: 100
--
molecule: N#Cc1c(Br)c(C(F)(F)F)n(COC=O)c1-c1ccc(Cl)cc1
value units: %
mortality at 0.25 mg/kg: 100
--
molecule: N#Cc1c(Br)c(C(F)(F)F)n(COC(=O)c2ccc(Cl)cc2)c1-c1ccc(Cl)cc1
value units: %
mortality at 0.25 mg/kg: 20
--
molecule: COc1ccc(C(=O)OCn2c(-c3ccc(Cl)cc3)c(C#N)c(Br)c2C(F)(F)F)cc1
value units: %
mortality at 0.25 mg/kg: 30
--
molecule: N#Cc1c(Br)c(C(F)(F)F)n(COC(=O)c2ccccc2)c1-c1ccc(Cl)cc1
value units: %
mortality at 0.25 mg/kg: 20
--
molecule: CC(Oc1ccc(Cl)cc1)C(=O)OCn1c(-c2ccc(Cl)cc2)c(C#N)c(Br)c1C(F)(F)F (centres undefined)
value units: %
mortality at 0.25 mg/kg: 100
--
molecule: N#Cc1c(Br)c(C(F)(F)F)n(COC(=O)c2ccc(N)cc2)c1-c1ccc(Cl)cc1
value units: %
mortality at 0.25 mg/kg: 10
--
molecule: CCCC(=O)OCn1c(-c2ccc(Cl)cc2)c(C#N)c(Br)c1C(F)(F)F
value units: %
mortality at 0.25 mg/kg: 100
--
molecule: CC(Oc1ccc(C(C)(C)C)cc1)C(=O)OCn1c(-c2ccc(Cl)cc2)c(C#N)c(Br)c1C(F)(F)F (centres undefined)
value units: %
mortality at 0.25 mg/kg: 100
--
molecule: N#Cc1c(Br)c(C(F)(F)F)n(COC(=O)c2ccccc2N)c1-c1ccc(Cl)cc1
value units: %
mortality at 0.25 mg/kg: 100
--
molecule: COc1cccc(C(=O)OCn2c(-c3ccc(Cl)cc3)c(C#N)c(Br)c2C(F)(F)F)c1
value units: %
mortality at 0.25 mg/kg: 65
--
molecule: CC(=O)OCn1c(-c2ccc(Cl)cc2)c(C#N)c(Br)c1C(F)(F)F
value units: %
mortality at 0.25 mg/kg: 100
--
molecule: CC(C)CC(=O)OCn1c(-c2ccc(Cl)cc2)c(C#N)c(Br)c1C(F)(F)F
value units: %
mortality at 0.25 mg/kg: 100
